Ref: PubChem BioAssay

experiment: probe aShh binding to arrayed compounds – biochemical, biotinylated probe, 635/667 nm fluorescence, primary screen (AID 1114); details: small-molecule microarray, higher = more signal;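 also: probe is biotin-labelled aShh protein from a stem cell growth factor screen; measures binding of labelled protein to compounds printed on the slide; score merges feature fluorescence at 667 nm with signal-to-noise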
ATTRIBUTE_MEASURED: composite z-score
Returns: the value as a bare number; no unit string appended.

Below are worked cases with known answers.
- MOLECULE: "CC(C)N1C(=O)C[C@@](C(=O)NC2CC2)(c2ccc([N+](=O)[O-])cc2)[C@H]1c1ccc(CO)cc1"
  composite z-score: -0.0709
- MOLECULE: "COC(=O)[C@@]1(Cc2ccc(OC)cc2)[C@H]2c3cc(C(=O)N4CCCC4)n(CCc4c[nH]c5ccc(OC)cc45)c3C[C@H]2CN1C(=O)c1ccccc1"
  composite z-score: 0.504
- MOLECULE: "[N-]=[N+]=NCc1ccccc1C[C@@]1(C(N)=O)N=C(c2ccc(OCCCO)cc2)O[C@@H]1c1ccccc1"
  composite z-score: -0.0035

Q: // query composite z-score value for entry C[N+](C)(C)CCCC[C@@H]1NC(=O)[C@@H]2C[C@H](C(=O)NCCCCCCN)[C@H](c3cccc(OCCO)c3)N2C1=O
Ans: 1.45

Q: // query composite z-score value for entry COCCOC(=O)N1C(=O)[C@@]2(c3cc(C#CC4(O)CCCCCC4)ccc31)[C@H](C(=O)N1CCc3cc(OC)c(OC)cc3C1)[C@H]1C(=O)O[C@H](c3ccccc3)[C@H](c3ccccc3)N1[C@@H]2c1ccc(OCCO)cc1
Ans: -0.0011

Q: // query composite z-score value for entry COc1cc2c(cc1O)C(C1CC1)N(Cc1cccc(OC(F)(F)F)c1)CC2 (centres undefined)
Ans: -0.0793

----------
test: probe aNog binding to arrayed compounds – biochemical, biotinylated probe, 635/667 nm fluorescence, primary screen (AID 1115); details: small-molecule microarray, higher = more signal;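 also: probe is biotinylated aNog protein used at 0.15 µg/mL for 1 h at 4 C; z-score combines 667 nm fluorescence of each spot with its signal to noise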
composite z-score reference

Below are worked cases with known answers.
- COMPOUND: "O=C(NCc1ccc(F)cc1)[C@H]1C[C@H]2C(=O)NCC(=O)N2[C@H]1c1ccc(O)cc1"
  composite z-score: -0.132
- COMPOUND: "CCCCC(CC)C(O)C1C=CC2C(=O)N(C)C(=O)C2N1Nc1ccccc1 (stereo not drawn)"
  composite z-score: 0.558
- COMPOUND: "CC(=O)NCCCC[C@@H]1NC(=O)[C@@H]2C[C@H](C(=O)NCCCCCN)[C@H](c3ccc(O)cc3)N2C1=O"
  composite z-score: -0.158

Q: // query composite z-score value for entry COC(=O)[C@@]1(Cc2ccc(F)cc2)[C@H]2c3cc(C(=O)N4CCCC4)n(CCc4c[nH]c5ccccc45)c3C[C@H]2CN1C(=O)c1ccccc1
Ans: 2.08

Q: // query composite z-score value for entry CCCC=C(CCC)[C@@H](NC(=O)c1cccs1)c1ccc(C(=O)OC)cc1
Ans: 2.91

Q: // query composite z-score value for entry CC(C)N1C(=O)c2ccccc2[C@@H](C(=O)NCCN2CCOCC2)[C@@H]1c1ccc(CO)cc1
Ans: -0.321

Q: // query composite z-score value for entry CC1=C2[C@@H](CCc3ccccc3)OB(O)C[C@@H]2[C@@H]2C(=O)N(Cc3ccccc3)C(=O)[C@@H]2C1
Ans: -0.314

Q: // query composite z-score value for entry CC(C)c1ccc(NN2C(C(O)c3ccc(F)cc3)C=CC3C(=O)N(c4ccccc4)C(=O)C32)cc1 (stereo not drawn)
Ans: 1.75

----------
z-score reference
assay: Pseudomonas biofilm growth suppression – PAO1 strain, BacTiter-Glo luminescence, LB-PBS, primary screen (AID 1144); settings: P. aeruginosa PAO1 biofilm, 12 h, higher = more signal
Returns: the value as a bare number; no unit string appended.

Below are worked cases with known answers.
- MOLECULE: "Cc1ccc(NN2C(C(O)c3c(F)cccc3Cl)C=CC3C(=O)N(C4CCCCC4)C(=O)C32)cc1 (stereo not drawn)"
  z-score: -0.933
- MOLECULE: "COc1cc2c(cc1O)C(c1ccc(CN3CCCC3)cc1)N(Cc1cc3c(cc1Br)OCO3)CC2 (stereo not drawn)"
  z-score: -0.587
- MOLECULE: "COC(=O)C(CC#Cc1ccc2c(c1)[C@]1(C(=O)N2)[C@H](c2ccc(O)cc2)N2[C@H](c3ccccc3)[C@H](c3ccccc3)OC(=O)[C@H]2[C@@H]1C(=O)NC[C@H](O)c1ccccc1)C(=O)OC"
  z-score: 0.221

Q: // query z-score value for entry C=CC[C@@]1(C(=O)NCCCOC)N=C(c2ccc(OCCCO)cc2)O[C@@H]1c1ccccc1N=[N+]=[N-]
Ans: -1.75

----------
assay: optical density shifts of acrAB sulA E. coli – strain DRC41, OD650, 48 h, E. coli filamentation inducer project, primary screen (AID 1152); conditions: higher = more signal, called active from +8 up or from −8 down;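 also: E. coli MC1000 strain DRC41 lacking acrAB efflux pump and sulA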
ATTRIBUTE_MEASURED: z-score
Returns: the value as a bare number; no unit string appended.

Below are worked cases with known answers.
- COMPOUND: "COC(=O)[C@@]1(Cc2ccc(OC)cc2)[C@H]2c3cc(C(=O)N4CCCC4)n(CCO)c3C[C@H]2CN1C(=O)c1ccccc1"
  ATTRIBUTE_MEASURED: "z-score"
  RESULT_NUMBER: -1.72
- COMPOUND: "C=CCC(OC(C)=O)[C@@H]1[C@@H](N(Cc2ccc(-c3ccccc3)cc2)C(=O)c2ccc(-c3ccccc3)cc2)c2cc(OCCCO)ccc2N1C(=O)c1ccc2ccccc2c1 (stereo partly drawn)"
  ATTRIBUTE_MEASURED: "z-score"
  RESULT_NUMBER: -0.75
- COMPOUND: "CC(C)(C)OC(=O)CC[C@@]1(C(=O)NCC(O)CO)N=C(c2ccc(OCCCO)cc2)O[C@@H]1c1ccccc1CN=[N+]=[N-] (stereo partly drawn)"
  ATTRIBUTE_MEASURED: "z-score"
  RESULT_NUMBER: 0.399
- COMPOUND: "COC(=O)c1c(CC[C@@H](CO)NC(=O)N2CCC[C@H]2Cn2cc(C3(O)CCCCC3)nn2)oc(C(C)=O)c1C(=O)OC"
  ATTRIBUTE_MEASURED: "z-score"
  RESULT_NUMBER: -0.955
- COMPOUND: "COC(=O)C1=CC(CCCO)=CC(c2ccc(CN3CCCC3)cc2)N(Cc2cccc(OC(F)(F)F)c2)C=C1C(=O)OC (stereo not drawn)"
  ATTRIBUTE_MEASURED: "z-score"
  RESULT_NUMBER: -0.418
- COMPOUND: "CC(C)N1C(=O)C[C@@](C(=O)NC2CC2)(c2ccc([N+](=O)[O-])cc2)[C@H]1c1ccc(CO)cc1"
  ATTRIBUTE_MEASURED: "z-score"
  RESULT_NUMBER: 1.3

Q: // query z-score value for entry C[N+](C)(C)CCCCCCNC(=O)[C@@H]1C[C@@H]2C(=O)N3CCC[C@H]3C(=O)N2[C@@H]1c1ccc(O)cc1
Ans: 0.524

Q: // query z-score value for entry CCOC(=O)C[C@H]1[C@H](OC(=O)c2cc3ccccc3oc2=O)[C@@H](NC(=O)CC(C)C)c2cc(OCCCO)ccc2N1C(=O)c1ccc2ccccc2n1
Ans: -0.618

Q: // query z-score value for entry C=CCN1C(=O)[C@]2(CCS(=O)(=O)c3ccccc3)N=C(c3ccc(OCCCO)cc3)O[C@@H]2c2ccccc21
Ans: 0.836

----------
z-score reference
experiment: plasmodial surface anion channel blockers, osmotic lysis – cell-based, P. falciparum Indochina, OD700, 2 h, primary screen (AID 1155);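 also: lysis reports solute entry through the parasite surface anion channel PSAC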; details: P. falciparum Indochina infected erythrocytes, higher = more signal, called active from +8 up or from −8 down
Returns: the value as a bare number; no unit string appended.

- SAMPLE_SMILES: "CCOC(=O)C[C@H]1[C@H](OC(=O)c2ccc(-c3ccccc3)cc2)[C@@H](NC(=O)CC(C)C)c2cc(OCCCO)ccc2N1C(=O)c1ccc2ccccc2n1"
  RESULT_NUMBER: 0.0409
- SAMPLE_SMILES: "COC(=O)C(CC#Cc1ccc2c(c1)[C@]1(C(=O)N2)[C@H](c2ccc(O)cc2)N2[C@H](c3ccccc3)[C@H](c3ccccc3)OC(=O)[C@H]2[C@@H]1C(=O)NC[C@H](O)c1ccccc1)C(=O)OC"
  RESULT_NUMBER: 0.353

Please turn your attention to the following entry.
Q: // query z-score value for entry COCCOC(=O)N1C(=O)[C@@]2(c3cc(C#CC4=CCCCC4)ccc31)[C@H](c1ccccc1OCCO)N1[C@H](c3ccccc3)[C@H](c3ccccc3)OC(=O)[C@H]1[C@@H]2C(=O)NC[C@H](O)c1ccccc1
Ans: 2.19

----------
test: probe aCHRDL2 binding to arrayed compounds – biochemical, biotinylated probe, 635/667 nm fluorescence, primary screen (AID 1100); settings: small-molecule microarray, higher = more signal
Grouping by measured composite z-score is done with the following cut points: band A = under 0.1, band B = from 0.1 up to 0.7, band C = 0.7 and over

Worked set:
- COMPOUND: "CCCCC=C[C@@H](NC(=O)OCc1ccccc1Cl)c1ccccc1"
  ASSIGNED_CLASS: "band C"
- COMPOUND: "CS(=O)(=O)CCOC(=O)C1=CC(CCCO)=CC(c2ccc(CN3CCCC3)cc2)N(Cc2sc3ccccc3c2Cl)C=C1C(=O)OCCS(C)(=O)=O (stereo not given)"
  ASSIGNED_CLASS: "band A"
- COMPOUND: "[N-]=[N+]=Nc1ccccc1C[C@]1(C(=O)NCCN2CCOCC2)COC(c2ccc(OCCCO)cc2)=N1"
  ASSIGNED_CLASS: "band C"
- COMPOUND: "Cc1ccc(S[C@]2(C(=O)NCC(F)(F)F)CC(=O)N(Cc3cc(C(F)(F)F)cc(C(F)(F)F)c3)[C@@H]2c2ccc(CO)cc2I)cc1"
  ASSIGNED_CLASS: "band C"
- COMPOUND: "OCCCC1=CC(c2ccc(CN3CCCC3)cc2)N(Cc2cc3c(cc2Br)OCO3)CC1 (stereo not given)"
  ASSIGNED_CLASS: "band C"
- COMPOUND: "CC(=O)NCCCC[C@@H]1NC(=O)[C@@H]2C[C@H](C(=O)NCCCCCN)[C@H](c3cccc(OCCO)c3)N2C1=O"
  ASSIGNED_CLASS: "band A"

Now consider the entry below.
Q: Just checking, what class would you give CCCCN1CC=CC23O[C@@H]4/C=C\CCCOC(=O)C4[C@H]2C(=O)N(CCO)[C@@H]3C1=O (stereo not given in full) here?
Ans: band B
